Origin of values: ChEMBL document CHEMBL3600314

- assay system: Cytochrome P450 2C8 (Homo sapiens, UniProt P10632)
- Sequence (P10632 whole entry): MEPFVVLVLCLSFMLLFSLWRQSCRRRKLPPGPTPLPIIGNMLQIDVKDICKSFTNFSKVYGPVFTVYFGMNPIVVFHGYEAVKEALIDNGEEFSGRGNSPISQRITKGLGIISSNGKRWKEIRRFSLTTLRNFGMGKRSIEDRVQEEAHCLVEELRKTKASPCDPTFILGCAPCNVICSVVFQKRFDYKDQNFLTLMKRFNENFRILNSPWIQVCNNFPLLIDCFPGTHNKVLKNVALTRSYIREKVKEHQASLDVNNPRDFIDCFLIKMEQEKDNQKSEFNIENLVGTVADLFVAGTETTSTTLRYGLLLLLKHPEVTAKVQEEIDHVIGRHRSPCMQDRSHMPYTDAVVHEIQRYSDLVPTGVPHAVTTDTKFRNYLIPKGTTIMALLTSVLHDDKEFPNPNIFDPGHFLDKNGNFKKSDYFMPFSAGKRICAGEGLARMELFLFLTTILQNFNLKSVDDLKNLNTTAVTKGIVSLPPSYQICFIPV
value kind: IC50

query: GET IC50 where system = Cytochrome P450 2C8 (Homo sapiens, UniProt P10632) and item = C[C@H](NC(=O)[C@H]1CCCCN1CCOc1ccccc1)c1ccc(C(=O)O)cc1.Cl
result: > 10 µM

----------
- assay system: Prostaglandin E2 receptor EP2 subtype (Homo sapiens, UniProt P43116)
- Sequence (P43116 whole entry): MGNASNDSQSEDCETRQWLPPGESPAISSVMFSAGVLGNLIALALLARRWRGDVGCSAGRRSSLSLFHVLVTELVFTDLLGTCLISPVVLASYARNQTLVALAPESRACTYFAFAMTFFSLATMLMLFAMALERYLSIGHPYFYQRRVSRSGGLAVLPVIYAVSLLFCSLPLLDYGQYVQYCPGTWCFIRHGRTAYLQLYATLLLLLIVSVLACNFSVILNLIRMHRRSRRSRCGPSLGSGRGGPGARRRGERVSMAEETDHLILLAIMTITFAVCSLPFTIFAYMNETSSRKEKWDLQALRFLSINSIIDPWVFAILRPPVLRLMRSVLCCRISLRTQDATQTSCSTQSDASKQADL
value kind: pIC50
pIC50 is a log-scale quantity: -log10 of the concentration expressed in molar.

query: GET pIC50 where system = Prostaglandin E2 receptor EP2 subtype (Homo sapiens, UniProt P43116) and item = C[C@H](NC(=O)[C@H]1CCCCN1CCOc1ccccc1)c1ccc(C(=O)O)cc1.Cl
result: 5.79

----------
- assay system: L-type calcium channel diltiazem binding site (Homo sapiens, UniProt O60840+Q01668+Q13698+Q13936)
- assay details: Inhibition of L-type calcium channel diltiazem binding site (unknown origin) at 10 uM relative to control
- Assay type: protein assay
value kind: inhibition at 10 µM (%)
Write the answer as a number in %, unit excluded.

query: # return recorded inhibition at 10 µM for entry C[C@H](NC(=O)[C@H]1CCCCN1CCOc1ccccc1)c1ccc(C(=O)O)cc1.Cl
result: -7

----------
Ki values for the compounds below.
- assay system: Prostaglandin E2 receptor EP4 subtype (Homo sapiens, UniProt P35408)
- Sequence (P35408 whole entry): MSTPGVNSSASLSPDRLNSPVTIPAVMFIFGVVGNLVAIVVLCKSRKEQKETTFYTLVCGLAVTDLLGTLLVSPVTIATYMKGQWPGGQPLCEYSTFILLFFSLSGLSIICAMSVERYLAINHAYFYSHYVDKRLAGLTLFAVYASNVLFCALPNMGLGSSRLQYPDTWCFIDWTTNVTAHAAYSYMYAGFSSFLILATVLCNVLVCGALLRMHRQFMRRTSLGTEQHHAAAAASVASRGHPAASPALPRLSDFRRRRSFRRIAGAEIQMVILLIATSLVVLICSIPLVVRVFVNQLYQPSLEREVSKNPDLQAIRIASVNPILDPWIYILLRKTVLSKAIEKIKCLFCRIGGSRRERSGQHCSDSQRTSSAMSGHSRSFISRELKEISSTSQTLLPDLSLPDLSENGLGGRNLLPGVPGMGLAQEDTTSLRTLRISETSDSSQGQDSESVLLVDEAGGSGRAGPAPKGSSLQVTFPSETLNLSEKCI
- assay details: Displacement of [3H]-PGE2 from recombinant human EP4 receptor expressed in HEK293 cell membranes after 90 mins by liquid scintillation counting analysis
Write the answer as a number in nM, unit excluded.

For orientation, consider the following solved cases.
{"smiles data": "C[C@H](NC(=O)[C@H]1CCCCN1CCOc1ccc(F)cc1)c1ccc(C(=O)O)cc1", "endpoint unit": "nM", "Ki": 40.4}
{"smiles data": "CC[C@H](NC(=O)[C@H]1CCCCN1CCOc1ccccc1)c1ccc(C(=O)O)cc1", "endpoint unit": "nM", "Ki": 129}

query: # return recorded Ki for entry C[C@H](NC(=O)[C@H]1CCCCN1CCOc1ccc(C#N)cc1)c1ccc(C(=O)O)cc1
result: 372

query: # return recorded Ki for entry O=C(O)c1ccc(CNC(=O)[C@H]2CCCCN2CCOc2ccccc2)cc1
result: 126

query: # return recorded Ki for entry O=C(O)c1ccc(C2(NC(=O)[C@H]3CCCCN3CCOc3ccccc3)CC2)cc1
result: 44.8

----------
- assay system: Cytochrome P450 2B6 (Homo sapiens)
- Sequence (P20813 whole entry): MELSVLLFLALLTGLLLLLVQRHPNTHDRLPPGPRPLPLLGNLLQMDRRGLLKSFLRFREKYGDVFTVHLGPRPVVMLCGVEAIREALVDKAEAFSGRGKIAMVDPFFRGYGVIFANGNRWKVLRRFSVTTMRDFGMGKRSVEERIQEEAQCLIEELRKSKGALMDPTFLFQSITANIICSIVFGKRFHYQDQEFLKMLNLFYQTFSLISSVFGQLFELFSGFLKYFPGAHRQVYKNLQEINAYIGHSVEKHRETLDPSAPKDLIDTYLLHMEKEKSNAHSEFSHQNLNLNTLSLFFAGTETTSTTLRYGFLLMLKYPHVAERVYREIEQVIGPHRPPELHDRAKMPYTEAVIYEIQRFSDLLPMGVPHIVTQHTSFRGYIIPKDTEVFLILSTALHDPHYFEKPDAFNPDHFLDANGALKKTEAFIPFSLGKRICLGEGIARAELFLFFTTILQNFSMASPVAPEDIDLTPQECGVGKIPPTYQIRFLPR
value kind: IC50

query: # return recorded IC50 for entry C[C@H](NC(=O)[C@H]1CCCCN1CCOc1ccccc1)c1ccc(C(=O)O)cc1.Cl
result: > 10 µM

----------
- assay system: Prostaglandin E2 receptor EP4 subtype (Homo sapiens, UniProt P35408)
- assay details: Antagonist activity at EP4 receptor in LPS-stimulated human whole blood assessed as inhibition of PGE2-induced TNF-alpha reduction preincubated for 30 mins followed by PGE2 addition measured after 24 hrs by ELISA
log10 IC50 values for the molecules below.
Give log10 of IC50, with IC50 taken in nM.

For orientation, consider the following solved cases.
{"smiles data": "O=C(O)c1ccc(CNC(=O)[C@H]2CCCCN2CCOc2ccccc2)cc1", "log10 IC50": 2.95}
{"smiles data": "C[C@H](NC(=O)[C@H]1CCCCN1CCOc1ccc(F)cc1)c1ccc(C(=O)O)cc1", "log10 IC50": 2.08}
{"smiles data": "C[C@H](NC(=O)[C@H]1CCCCN1CCOc1ccc(C#N)cc1)c1ccc(C(=O)O)cc1", "log10 IC50": 3.08}
{"smiles data": "O=C(O)c1ccc(C2(NC(=O)[C@H]3CCCCN3CCOc3ccccc3)CC2)cc1", "log10 IC50": 2.77}
{"smiles data": "CC[C@H](NC(=O)[C@H]1CCCCN1CCOc1ccccc1)c1ccc(C(=O)O)cc1", "log10 IC50": 2.46}

query: # return recorded log10 IC50 for entry CCc1nc2c(C)nc(C)cc2n1-c1ccc(CCNC(=O)NS(=O)(=O)c2ccc(C)cc2)cc1
result: 3.21
